- Tested on: Rattus norvegicus
- procedure.details: In vivo inhibition of AII pressor response was measured in conscious, normotensive rats after intravenous administration at dose 1.0 mg/kg
- Type: functional
Each record here notes measured inhibition in vivo at 1 mg/kg.

>  <entry.smiles>
CCCCc1nn(-c2cc(NC(=O)c3ccccc3)ccc2C(F)(F)F)c(=O)n1Cc1ccc(-c2ccccc2S(=O)(=O)NC(=O)OC(C)(C)C)cc1F

>  <inhibition in vivo at 1 mg/kg, %>
92

$$$$
>  <entry.smiles>
CCCCC(=O)Nc1ccc(Br)c(-n2nc(CC)n(Cc3ccc(-c4ccccc4S(=O)(=O)NC(=O)OC(C)(C)C)cc3F)c2=O)c1

>  <inhibition in vivo at 1 mg/kg, %>
100

$$$$
>  <entry.smiles>
CCCCC(=O)Nc1ccc(Br)c(-n2nc(CC)n(Cc3ccc(-c4ccccc4S(=O)(=O)NC(=O)c4ccccc4F)cc3F)c2=O)c1

>  <inhibition in vivo at 1 mg/kg, %>
85

$$$$
>  <entry.smiles>
CCCCNC(=O)c1ccc(Cl)c(-n2nc(CCCC)n(Cc3ccc(-c4ccccc4S(=O)(=O)NC(=O)c4ccccc4Cl)cc3F)c2=O)c1

>  <inhibition in vivo at 1 mg/kg, %>
93

$$$$
>  <entry.smiles>
CCCCC(=O)Nc1ccc(C(F)(F)F)c(-n2nc(CCCC)n(Cc3ccc(-c4ccccc4S(=O)(=O)NC(=O)OC(C)(C)C)cc3F)c2=O)c1

>  <inhibition in vivo at 1 mg/kg, %>
71

$$$$
>  <entry.smiles>
CCCCc1nn(-c2cc(NC(=O)CC)ccc2C(F)(F)F)c(=O)n1Cc1ccc(-c2ccccc2S(=O)(=O)NC(=O)OC(C)(C)C)cc1F

>  <inhibition in vivo at 1 mg/kg, %>
89

$$$$
>  <entry.smiles>
CCC(=O)Nc1ccc(Br)c(-n2nc(CC)n(Cc3ccc(-c4ccccc4S(=O)(=O)NC(=O)OC(C)(C)C)cc3F)c2=O)c1

>  <inhibition in vivo at 1 mg/kg, %>
100

$$$$
